Target: Porcine ventricle myofibrils (ventricular myosin ATPase) (Sus scrofa, UniProt P79293)
Construct: Myofibrils from porcine cardiac muscle was isolated from the left ventricle of Yucatan minipigs; tissue Exemplar Genetics; host or cells: left ventricle of Yucatan minipigs, myofibrils prepared in house
Sequence (P79293 whole entry): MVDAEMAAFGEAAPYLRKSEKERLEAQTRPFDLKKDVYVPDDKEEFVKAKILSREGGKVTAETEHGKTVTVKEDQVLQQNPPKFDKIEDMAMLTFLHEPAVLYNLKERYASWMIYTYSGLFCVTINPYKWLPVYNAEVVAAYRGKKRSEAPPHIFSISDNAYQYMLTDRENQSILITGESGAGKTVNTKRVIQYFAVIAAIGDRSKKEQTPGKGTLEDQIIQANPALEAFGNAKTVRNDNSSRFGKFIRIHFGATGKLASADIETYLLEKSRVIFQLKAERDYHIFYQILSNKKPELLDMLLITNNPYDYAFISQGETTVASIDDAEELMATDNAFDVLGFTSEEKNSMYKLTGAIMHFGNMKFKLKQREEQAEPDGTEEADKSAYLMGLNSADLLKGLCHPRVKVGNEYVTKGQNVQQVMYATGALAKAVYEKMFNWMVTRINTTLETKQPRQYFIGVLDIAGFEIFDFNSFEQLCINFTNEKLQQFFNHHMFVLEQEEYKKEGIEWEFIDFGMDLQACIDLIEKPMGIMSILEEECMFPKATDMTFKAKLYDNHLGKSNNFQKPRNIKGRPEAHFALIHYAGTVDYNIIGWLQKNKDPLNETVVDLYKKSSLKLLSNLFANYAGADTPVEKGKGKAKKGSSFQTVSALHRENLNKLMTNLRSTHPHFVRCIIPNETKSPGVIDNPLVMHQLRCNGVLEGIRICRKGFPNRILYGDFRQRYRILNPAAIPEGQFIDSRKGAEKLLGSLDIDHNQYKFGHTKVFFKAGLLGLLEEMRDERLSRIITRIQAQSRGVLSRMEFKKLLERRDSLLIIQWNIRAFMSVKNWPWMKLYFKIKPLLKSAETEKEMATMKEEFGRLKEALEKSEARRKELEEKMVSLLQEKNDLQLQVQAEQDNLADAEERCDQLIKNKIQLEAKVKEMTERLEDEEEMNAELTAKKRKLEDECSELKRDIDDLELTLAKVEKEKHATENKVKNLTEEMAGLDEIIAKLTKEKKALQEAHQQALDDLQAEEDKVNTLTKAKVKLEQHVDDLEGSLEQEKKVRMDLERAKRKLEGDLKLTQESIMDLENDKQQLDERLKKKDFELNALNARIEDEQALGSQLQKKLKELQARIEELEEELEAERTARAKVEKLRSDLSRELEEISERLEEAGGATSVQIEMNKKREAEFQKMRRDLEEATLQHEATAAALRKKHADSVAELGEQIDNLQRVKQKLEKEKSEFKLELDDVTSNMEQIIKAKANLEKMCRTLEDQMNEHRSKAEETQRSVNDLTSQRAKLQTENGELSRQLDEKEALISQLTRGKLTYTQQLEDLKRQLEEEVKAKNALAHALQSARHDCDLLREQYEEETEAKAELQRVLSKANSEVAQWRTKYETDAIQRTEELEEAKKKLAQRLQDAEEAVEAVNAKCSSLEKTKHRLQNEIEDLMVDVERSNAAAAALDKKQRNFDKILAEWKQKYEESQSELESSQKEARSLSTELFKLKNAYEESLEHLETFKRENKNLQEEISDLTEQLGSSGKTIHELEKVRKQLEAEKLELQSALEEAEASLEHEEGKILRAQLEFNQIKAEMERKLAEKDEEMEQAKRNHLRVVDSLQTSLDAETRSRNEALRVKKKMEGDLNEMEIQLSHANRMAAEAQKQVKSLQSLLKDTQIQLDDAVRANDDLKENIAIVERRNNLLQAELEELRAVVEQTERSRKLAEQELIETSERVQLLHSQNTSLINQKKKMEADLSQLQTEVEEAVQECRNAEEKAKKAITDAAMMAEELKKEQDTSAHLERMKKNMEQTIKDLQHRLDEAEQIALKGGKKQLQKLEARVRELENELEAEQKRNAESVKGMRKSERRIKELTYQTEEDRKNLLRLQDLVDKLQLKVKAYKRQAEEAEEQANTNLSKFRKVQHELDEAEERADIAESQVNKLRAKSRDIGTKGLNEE
Assay: Myofibril ATPase assay, porcine ventricle myofibrils
Type: biochemical, porcine (Yucatan minipigs)
Conditions: Y75 value (no ‡ mark); porcine ventricle myofibrils
RECORDED ENDPOINT: Ventricular EC25 (µM)

See these solved cases before continuing.
- MOLECULE: "Cc1c(CC(=O)N[C@@H](C)c2ccc(C#N)cc2F)c(=O)[nH]c2ccc(F)c(C3CC3)c12 [compound 70]"
  SYSTEM: "Porcine ventricle myofibrils (ventricular myosin ATPase) (Sus scrofa, UniProt P79293)"
  Ventricular EC25 [µM]: 100.00
- MOLECULE: "C[C@H](NC(=O)Cc1cc2c(F)cc(F)cc2[nH]c1=O)c1ncc(C#N)cc1F [compound 1138]"
  SYSTEM: "Porcine ventricle myofibrils (ventricular myosin ATPase) (Sus scrofa, UniProt P79293)"
  Ventricular EC25 [µM]: 1.22
- MOLECULE: "C[C@H](NC(=O)Cc1c(C(F)(F)F)c2ccccc2[nH]c1=O)c1ccc(F)cc1F [compound 129]"
  SYSTEM: "Porcine ventricle myofibrils (ventricular myosin ATPase) (Sus scrofa, UniProt P79293)"
  Ventricular EC25 [µM]: 0.75
- MOLECULE: "Cc1c(C(F)(F)C(=O)N[C@@H](C)c2cc(C#N)ccn2)c(=O)[nH]c2ccc(F)cc12 (single isomer, unassigned) [compound 2576]"
  SYSTEM: "Porcine ventricle myofibrils (ventricular myosin ATPase) (Sus scrofa, UniProt P79293)"
  Ventricular EC25 [µM]: 100.00
- MOLECULE: "Cc1c(C(F)(F)C(=O)N[C@H](C)c2cccc(C#N)n2)c(=O)[nH]c2ccc(F)cc12 (single isomer, unassigned) [compound 2565]"
  SYSTEM: "Porcine ventricle myofibrils (ventricular myosin ATPase) (Sus scrofa, UniProt P79293)"
  Ventricular EC25 [µM]: 100.00

1. Cc1cc([C@H](C)NC(=O)Cc2c(O)c3c(C)c(F)ccc3[nH]c2=O)ncc1F [compound 1117]
2. Cc1c(C(F)(F)C(=O)N[C@@H](C)c2cnc(C#N)cn2)c(=O)[nH]c2ccc(F)cc12 (single isomer, unassigned) [compound 2564]
3. Cc1c(CC(=O)N[C@@H](C)c2ncc(C#N)cc2F)c(=O)[nH]c2ccc(F)c(F)c12 [compound 42]
4. C[C@H](NC(=O)Cc1c(C2CC2)c2cc(F)ccc2[nH]c1=O)c1ccc(C#N)nn1 (single isomer, unassigned) [compound 2054]
Q) Arrange by Ventricular EC25, high to low. Please write the labels in the order that was asked for.
A) 1, 4, 2, 3
(1: 46.61 µM, 4: 3.72 µM, 2: 0.89 µM, 3: 0.04 µM)

====

Test system: Rabbit Psoas myofibrils (skeletal myosin ATPase)
Assay: Myofibril ATPase assay, rabbit psoas (skeletal) myofibrils
Assay type: biochemical
Details: Y75 value (no ‡ mark); rabbit psoas myofibrils
RECORDED ENDPOINT: Skeletal EC25 (nM)

See these solved cases before continuing.
- COMPOUND: "C[C@@H](NC(=O)C1(c2cc3c(F)c(F)ccc3[nH]c2=O)CC1)c1ccc(C#N)cn1 (single isomer, unassigned) [compound 4809]"
  Skeletal EC25 (nM): 1340
- COMPOUND: "Cc1c([C@@H](C)C(=O)N[C@H](C)c2ncc(C#N)cc2F)c(=O)[nH]c2ccc(F)c(F)c12 (relative stereo) [compound 2600]"
  Skeletal EC25 (nM): 100000
- COMPOUND: "Cc1c(CC(=O)N[C@H](C)c2ccc(C#N)nn2)c(=O)[nH]c2ccc(F)c(C3CC3)c12 (single isomer, unassigned) [compound 2057]"
  Skeletal EC25 (nM): 270

I. N#Cc1cnc2c(c1)CC[C@H]2NC(=O)C1(c2cc3c(F)c(F)ccc3[nH]c2=O)CC1 (single isomer, unassigned) [compound 4823]
II. C[C@H](NC(=O)[C@@H](C)c1c(C(F)(F)F)c2cc(F)ccc2[nH]c1=O)c1ccc(F)cc1F (single isomer, unassigned) [compound 57]
Q) For the pair I and II , which member has the lower Skeletal EC25 number? Answer by quoting the chosen item's label.
A) II

I. C[C@H](NC(=O)Cc1cc2c(C(F)(F)F)c(F)ccc2[nH]c1=O)c1ncc(C#N)cn1 (single isomer, unassigned) [compound 2010]
II. C[C@H](NC(=O)C(F)(F)c1cc2c(F)c(F)ccc2[nH]c1=O)c1nccc(C#N)n1 (single isomer, unassigned) [compound 2562]
Q) For the pair I and II , which member has the lower Skeletal EC25 number? Answer by quoting the chosen item's label.
A) II
(II: 280 nM, I: 660 nM)

a. Cc1c(CC(=O)N[C@H](C)c2ncc(C#N)cn2)c(=O)[nH]c2ccc(F)c(Cl)c12 (single isomer, unassigned) [compound 2055]
b. C[C@@H](NC(=O)Cc1c(C2CC2)c2c(F)c(F)ccc2[nH]c1=O)c1ccc(C#N)nn1 (single isomer, unassigned) [compound 2065]
Q) For the pair a and b , which member has the lower Skeletal EC25 number? Answer by quoting the chosen item's label.
A) a
(a: 110 nM, b: 1100 nM)

I. Cc1c(C(C)C(=O)N[C@@H](C)c2ccc(F)cc2F)c(=O)[nH]c2ccc(F)cc12 (some centres unmarked) [compound 127]
II. Cc1c(F)ccc2[nH]c(=O)c(CC(=O)N[C@H](C)c3ncc(C#N)cc3F)c(C#N)c12 [compound 1149]
III. Cc1c(CC(=O)N[C@@H](C)c2ncc(C#N)cc2F)c(=O)[nH]c2cc(F)c(F)cc12 [compound 1105]
Q) Form: Sort by [Skeletal EC25] Order [ ascending ] Please write the labels in the order that was asked for.
A) I, II, III

1. Cc1c(C2(C(=O)N[C@H](C)c3cccc(C#N)n3)CC2)c(=O)[nH]c2ccc(F)c(F)c12 (single isomer, unassigned) [compound 2547]
2. Cc1c(CC(=O)N[C@@H](C)c2cnc(C#N)nc2)c(=O)[nH]c2ccc(F)cc12 [compound 1101]
3. Cc1c(CC(=O)N[C@@H](C)c2ccc(F)cc2F)c(=O)[nH]c2ccc(F)c(C3CC3)c12 [compound 101]
4. Cc1c(CC(=O)N[C@H](C)c2ccc(C#N)cc2F)c(=O)[nH]c2ccc(F)c(F)c12 [compound 65]
Q) Arrange by Skeletal EC25, high to low. Please write the labels in the order that was asked for.
A) 1, 3, 2, 4
(1: 910 nM, 3: 230 nM, 2: 60 nM, 4: 20 nM)

====

Target: Porcine ventricle myofibrils (ventricular myosin ATPase) (Sus scrofa, UniProt P79293)
Construct: Myofibrils from porcine cardiac muscle was isolated from the left ventricle of Yucatan minipigs; tissue Exemplar Genetics; host or cells: left ventricle of Yucatan minipigs, myofibrils prepared in house
Experiment: Myofibril ATPase assay, porcine ventricle myofibrils
Format: biochemical, porcine (Yucatan minipigs)
Conditions: Y75 value (no ‡ mark); porcine ventricle myofibrils
RECORDED ENDPOINT: Ventricular EC25 (nM)

- COMPOUND: "Cc1cc(C#N)nnc1[C@H](C)NC(=O)Cc1c(C)c2cc(F)ccc2[nH]c1=O [compound 1059]"
  READING UNIT: "nM"
  Ventricular EC25: 160

P. C[C@@H](NC(=O)Cc1cc2c(F)c(F)ccc2[nH]c1=O)c1ncc(C#N)cn1 (single isomer, unassigned) [compound 2071]
Q. C[C@H](NC(=O)C1(c2cc3c(F)c(F)ccc3[nH]c2=O)CC1)c1ccc(F)cc1F [compound 4814]
Q) For the pair P and Q , which member has the lower Ventricular EC25 number? Answer by quoting the chosen item's label.
A) Q
(Q: 1310 nM, P: 2620 nM)

====

System: Porcine atria myofibrils (atrial myosin ATPase)
Assay: Myofibril ATPase assay, porcine atria myofibrils
Assay type: biochemical
Conditions: porcine atria myofibrils; Y75 value (75% activity relative to no compound)
RECORDED ENDPOINT: Atrial EC25 (µM)

See these solved cases before continuing.
- COMPOUND: "Cc1nccc2[nH]c(=O)c(CC(=O)N[C@@H](C)c3cccc(O)c3)c(C)c12 (single isomer, unassigned)"
  RECORDED ENDPOINT: "Atrial EC25"
  TEST RESULT: 100.00
- COMPOUND: "C[C@@H](NC(=O)Cc1c(C2CC2)c2cnccc2[nH]c1=O)c1ccc(C#N)cn1"
  RECORDED ENDPOINT: "Atrial EC25"
  TEST RESULT: 100.00
- COMPOUND: "Cc1nc(C#N)cnc1[C@@H](C)NC(=O)Cc1c(C)c2nc(C(F)(F)F)ccc2[nH]c1=O (single isomer, unassigned)"
  RECORDED ENDPOINT: "Atrial EC25"
  TEST RESULT: 0.35

P. Cc1nccc2[nH]c(=O)c(C(F)(F)C(=O)N[C@@H](C)c3ccc(F)cc3F)c(C)c12
Q. Cc1nccc2[nH]c(=O)c(CC(=O)N[C@H](CO)c3ncc(F)cc3F)c(C)c12 (single isomer, unassigned)
R. C[C@H](NC(=O)Cc1cc2c(C(F)(F)F)nccc2[nH]c1=O)c1ccc(F)cc1F
S. Cc1nccc2[nH]c(=O)c(CC(=O)N[C@@H](C)c3ncc(F)cc3F)c(C)c12 (single isomer, unassigned)
Q) Form: Sort by [Atrial EC25] Order [ ascending ] Please write the labels in the order that was asked for.
A) P, S, R, Q
(P: 0.15 µM, S: 2.36 µM, R: 32.52 µM, Q: 100.00 µM)
